Target: T1, full-length cynomolgus GLP1R on HEK293/CRE-Luc/mfGLP1R cells (cynomolgus, UniProt F8V479 24-463)
T1 construct: whole, on cells
Experiment: flow cytometry, mfGLP1R cells
VALUE_KIND: EC50 (nM)

>  <BINDER>
REGN8070-M3190 (antibody, human IgG4 S228P, kappa, V domains shown, linker-payload M3190 (LP11) on Gln 3 of the N-terminal Q-tag LLQGSG, antibody-tethered drug conjugate; also called REGN8070 ATDC) VH: QVQLVESGGGVGQPGRSLRLSCAASGFTFSRNAMHWVRQAPGKGLEWVAVISYDGSNKHYADSVKGRFTISRDNSKNTLYLEMNSLRVEDTAVYYCAKGGIPFDYWGQGTLVTVSS VL: DIVMTQSPLSSPVTLGQPASISCRSSQSLVHFDGNTYLSWLHQRPGQPPRLLIYKISNRFSGVPDRFSGSGAGTDFTLKISRVEPEDVGVYYCMHATQFPYTFGQGTKLEIKR

>  <VALUE_KIND>
EC50

>  <UNIT_OF_MEASURE>
nM

>  <MEASUREMENT>
3.71

$$$$
